B1: PhoQ; a variant is named by its letters at X, in order, P23837 (parent)
chain: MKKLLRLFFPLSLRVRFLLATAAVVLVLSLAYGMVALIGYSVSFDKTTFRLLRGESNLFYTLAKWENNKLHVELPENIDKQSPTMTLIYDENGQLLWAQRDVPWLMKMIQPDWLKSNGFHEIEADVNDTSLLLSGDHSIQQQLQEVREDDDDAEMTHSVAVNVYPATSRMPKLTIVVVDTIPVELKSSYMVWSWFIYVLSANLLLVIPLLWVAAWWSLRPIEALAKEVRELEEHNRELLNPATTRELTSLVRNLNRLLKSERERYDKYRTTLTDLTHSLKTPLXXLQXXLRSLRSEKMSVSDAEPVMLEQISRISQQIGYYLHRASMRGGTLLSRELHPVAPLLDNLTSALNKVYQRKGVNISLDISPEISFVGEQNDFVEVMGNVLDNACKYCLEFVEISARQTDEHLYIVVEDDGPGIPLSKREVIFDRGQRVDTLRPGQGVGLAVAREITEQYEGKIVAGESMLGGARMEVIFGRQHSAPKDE

# Variants of: B1
# Experiment Notes: enrichment ratio after two sorts for PhoP signalling (ratio (wild type AVST 3.29)); higher = more functional
# Test Context: with PhoP (E. coli)
In all, about 140,000 sequences were measured (“enrichment ratio after two sorts for PhoP signalling”: median about 0, highest 2% from about 11 on). This excerpt belongs to a sample that is enriched for the highest values.
Reported Metric: enrichment ratio

Determine its reported enrichment ratio: `KANC`
≤ 0.25

Please supply the value of reported enrichment ratio for the item `IANC`
≤ 0.25

Tell me measured enrichment ratio for `NHNQ` please.
≤ 0.25

For the variant `KDNC` , give its reported enrichment ratio.
≤ 0.25

Assign enrichment ratio to the following record: `EKLK`
≤ 0.25

For the variant `YCNQ` , give its measured enrichment ratio value.
≤ 0.25

Quickly give me recorded enrichment ratio for `FHGK`
≤ 0.25

Give enrichment ratio for the following variant: `QCTL`
≤ 0.25

Answer with reported enrichment ratio of `HRPD`
≤ 0.25

Report measured enrichment ratio; entry is `AHVV`
≤ 0.25

Identify the reported enrichment ratio for the following entry. `PGDY`
≤ 0.25

Return the recorded enrichment ratio value; entry: `DAQH`
≤ 0.25
